Hello, the source for this data is the supplement of paper PMC8728848, in case you need it.

Assay Target: Fuc(a1-2)Gal(b1-3)GalNAc(b1-4)[Neu5Ac(a2-3)]Gal(b1-4)Glc
Test Details: glycan array binding signal (z-score within array); higher = stronger binding
Measurement Setup: glycan notation: IUPAC condensed, linker removed
This excerpt belongs to a sample that is enriched for the strongest signals.
Could you please report measured glycan array binding signal (z-score) for the items listed next?
Hey, just send me the number, nothing else.

In: Recorded glycan array binding signal (z-score) for PILRa (Homo sapiens), Q9UKJ1 (protein) MGRPLLLPLLPLLLPPAFLQPSGSTGSGPSYLYGVTQPKHLSASMGGSVEIPFSFYYPWELATAPDVRISWRRGHFHRQSFYSTRPPSIHKDYVNRLFLNWTEGQKSGFLRISNLQKQDQSVYFCRVELDTRSSGRQQWQSIEGTKLSITQAVTTTTQRPSSMTTTWRLSSTTTTTGLRVTQGKRRSDSWHISLETAVGVAVAVTVLGIMILGLICLLRWRRRKGQQRTKATTPAREPFQNTEEPYENIRNEGQNTDPKLNPKDDGIVYASLALSSSTSPRAPPSHRPLKSPQNETLYSVLKA , please?
Out: -0.102

In: Recorded glycan array binding signal (z-score) for M6PR (Bos taurus), P11456 (protein) MMSPLHSSWRTGLLLLLLFSVAVRESWQTEEKTCDLVGEKGKESEKELALLKRLTPLFNKSFESTVGQSPDMYSYVFRVCREAGNHSSGAGLVQINKSNGKETVVGRFNETQIFNGSNWIMLIYKGGDEYDNHCGREQRRAVVMISCNRHTLADNFN , please?
Out: 2.76

In: Recorded glycan array binding signal (z-score) for DC-Sign-R (Homo sapiens), Q9H2X3 (protein) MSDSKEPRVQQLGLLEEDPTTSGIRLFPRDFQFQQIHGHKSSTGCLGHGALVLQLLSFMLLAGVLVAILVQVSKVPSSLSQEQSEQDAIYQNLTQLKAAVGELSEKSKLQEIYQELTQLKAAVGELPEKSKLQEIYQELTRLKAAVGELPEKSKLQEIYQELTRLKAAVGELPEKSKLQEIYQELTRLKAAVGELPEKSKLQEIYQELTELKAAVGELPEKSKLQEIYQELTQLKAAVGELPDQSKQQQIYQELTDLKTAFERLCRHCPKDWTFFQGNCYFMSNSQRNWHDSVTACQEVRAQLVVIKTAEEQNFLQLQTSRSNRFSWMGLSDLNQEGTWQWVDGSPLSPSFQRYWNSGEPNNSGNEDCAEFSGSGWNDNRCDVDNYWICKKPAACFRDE , please?
Out: -0.074

In: Recorded glycan array binding signal (z-score) for LICBM33A (Lactococcus lactis), Q9CE94 (protein) MKKLLTGLLVAAGLLSVSLLIKTDTVSAHGYVQSPPARGYQGQLDSQSLGWTAAFNIYGNVISNPQSLEAPKGFPECGPADGRIASANGGLGQIGDFVLDNQTSSRWKKTSISTGSNIFTWKYTAPHKTTKWHYYMTKTGWDQNAPLKHSELELIGTINHDGSPATNNLSHTINIPTDRSGYHIVLAVWDVADTSNAFYNVIDINVNNKNASSQVFGPFL , please?
Out: -0.276

In: Recorded glycan array binding signal (z-score) for AAA (Anguilla anguilla), Q7SIC1 (protein) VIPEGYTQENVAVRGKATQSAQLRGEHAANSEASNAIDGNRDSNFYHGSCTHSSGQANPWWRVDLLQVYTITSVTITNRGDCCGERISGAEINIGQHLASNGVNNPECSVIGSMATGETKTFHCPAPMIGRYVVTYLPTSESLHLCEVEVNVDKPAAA , please?
Out: -0.193

In: Recorded glycan array binding signal (z-score) for MIG/CXCL9 (Homo sapiens) (protein) TPVVRKGRCSCISTNQGTIHLQSLKDLKQFAPSPSCEKIEIIIATLKNGVQTCLNPDSADVKELIKKTEKQVSQKKKQKNGKKHQKKKVLKVRKSQRSRQKKTT , please?
Out: -0.193

In: Recorded glycan array binding signal (z-score) for Arath Fbox (Arabidopsis thaliana), NP_178341.1 (protein) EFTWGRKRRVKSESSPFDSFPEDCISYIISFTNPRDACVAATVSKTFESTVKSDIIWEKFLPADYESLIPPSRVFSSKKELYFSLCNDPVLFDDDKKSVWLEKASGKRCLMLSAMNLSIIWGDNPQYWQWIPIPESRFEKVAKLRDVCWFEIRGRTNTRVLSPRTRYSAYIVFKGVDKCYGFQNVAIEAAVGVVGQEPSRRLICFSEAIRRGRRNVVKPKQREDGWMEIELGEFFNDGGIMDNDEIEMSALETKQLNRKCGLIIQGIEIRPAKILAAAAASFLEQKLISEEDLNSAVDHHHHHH , please?
Out: -0.123

In: Recorded glycan array binding signal (z-score) for Gal 2 (Canis lupus) (protein) MSGKFEVMNMDMKLGGTLKIKGKIAGDADGFVINLGQGSDKLNLHFNPRFHESVIVCNSRNWGQEQRDKHMCFSPGSEVKFTVTFENDGFKVKLPDGHQLTFPNRLGHSHLSYLGVQGGLKVSSFKIE , please?
Out: -0.028

In: Recorded glycan array binding signal (z-score) for XL-35 (Xenopus laevis) (protein) MLVHILLLLVTGGLSQSCDPVVIVASKNMVKQLDCDKFRNCKEIKDSNEEAQDGIYTLTSPDGISYQTFCDMTTNGGGWTLVASVHENNMAGKCTIGDRWSSQQGNRADYPEGDGNWANYNTFGSAGGATSDDYKNPGYYDIEAYNLGVWHVPNKTPLSVWRNSSLQRYRTTDGILFKHGGNLFSLYRIYPVKYGIGSCSKDSGPTVPVVYDLGSANLTASFYSPGFRSQFTPGYIQFRPINTEKAALALCPGMKMESCNVEHVCIGGGGYFPEADPRQCGDFAAYDFNGYGTKKFNSAGIEITEAAVLLFYL , please?
Out: -0.108

In: Recorded glycan array binding signal (z-score) for CSA (Cytisus scoparius), P29257 (protein) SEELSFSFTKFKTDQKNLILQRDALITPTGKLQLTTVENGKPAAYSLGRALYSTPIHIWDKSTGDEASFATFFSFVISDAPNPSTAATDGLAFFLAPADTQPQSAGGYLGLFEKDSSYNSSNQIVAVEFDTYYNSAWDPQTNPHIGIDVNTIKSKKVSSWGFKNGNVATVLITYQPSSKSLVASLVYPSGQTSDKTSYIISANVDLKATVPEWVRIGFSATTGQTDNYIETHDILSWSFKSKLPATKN , please?
Out: -0.177
